src = patent US8871753B2

Target: Recombinant Human Anaplastic Lymphoma Kinase (Homo sapiens, UniProt Q9UM73)
Construct: purchased Invitrogen, Carlsbad, Calif
Sequence (Q9UM73 19-1620): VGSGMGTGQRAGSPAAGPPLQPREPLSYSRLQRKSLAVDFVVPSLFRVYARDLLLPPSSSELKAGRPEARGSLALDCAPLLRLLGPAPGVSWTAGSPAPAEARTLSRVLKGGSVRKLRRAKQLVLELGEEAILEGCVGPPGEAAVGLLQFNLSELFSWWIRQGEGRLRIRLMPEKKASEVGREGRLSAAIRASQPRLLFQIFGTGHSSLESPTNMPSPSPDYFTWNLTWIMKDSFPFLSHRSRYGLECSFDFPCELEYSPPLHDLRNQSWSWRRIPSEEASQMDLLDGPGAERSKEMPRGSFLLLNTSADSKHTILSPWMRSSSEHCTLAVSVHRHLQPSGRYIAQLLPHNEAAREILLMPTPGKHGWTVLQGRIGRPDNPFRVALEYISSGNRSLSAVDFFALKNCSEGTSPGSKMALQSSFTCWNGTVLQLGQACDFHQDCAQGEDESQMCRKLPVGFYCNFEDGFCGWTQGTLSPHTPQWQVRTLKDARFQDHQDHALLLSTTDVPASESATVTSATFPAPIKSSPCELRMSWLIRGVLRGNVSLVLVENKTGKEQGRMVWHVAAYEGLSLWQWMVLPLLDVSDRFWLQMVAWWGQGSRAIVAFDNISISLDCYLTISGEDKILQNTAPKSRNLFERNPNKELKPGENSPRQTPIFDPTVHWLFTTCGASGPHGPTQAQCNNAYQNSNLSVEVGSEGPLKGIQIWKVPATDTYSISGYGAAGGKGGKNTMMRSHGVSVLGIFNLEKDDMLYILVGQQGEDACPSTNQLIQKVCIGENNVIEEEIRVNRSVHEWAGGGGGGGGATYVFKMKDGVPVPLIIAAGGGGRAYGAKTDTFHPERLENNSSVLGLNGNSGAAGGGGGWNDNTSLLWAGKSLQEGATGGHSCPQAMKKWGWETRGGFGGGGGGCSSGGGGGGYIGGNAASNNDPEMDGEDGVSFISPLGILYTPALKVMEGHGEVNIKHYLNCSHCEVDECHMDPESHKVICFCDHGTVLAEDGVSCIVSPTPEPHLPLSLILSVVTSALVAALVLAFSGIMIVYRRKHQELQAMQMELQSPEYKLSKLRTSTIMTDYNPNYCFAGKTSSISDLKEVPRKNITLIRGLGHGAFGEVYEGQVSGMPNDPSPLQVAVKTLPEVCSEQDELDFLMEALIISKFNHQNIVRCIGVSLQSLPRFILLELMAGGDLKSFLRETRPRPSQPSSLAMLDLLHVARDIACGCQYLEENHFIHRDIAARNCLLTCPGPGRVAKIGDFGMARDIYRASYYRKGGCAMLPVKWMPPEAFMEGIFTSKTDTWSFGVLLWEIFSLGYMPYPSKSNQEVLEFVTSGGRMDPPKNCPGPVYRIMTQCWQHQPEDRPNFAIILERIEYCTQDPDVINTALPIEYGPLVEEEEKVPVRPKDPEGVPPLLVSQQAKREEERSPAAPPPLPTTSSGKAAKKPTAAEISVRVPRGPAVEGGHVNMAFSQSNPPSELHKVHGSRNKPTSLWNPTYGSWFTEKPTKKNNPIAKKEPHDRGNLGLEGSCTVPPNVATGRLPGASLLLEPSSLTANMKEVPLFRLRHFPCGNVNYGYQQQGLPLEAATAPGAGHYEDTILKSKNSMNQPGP
Test: ALK HTRF kinase assay
Format: biochemical
Details: compound at a concentration of 500 nM or 1 mM (not specified); cells shown as percentage
Structures can show the parent of a compound that is named as a salt.
property.measured: ALK % of inhibition at a concentration of 500 nM or 1 mM (%)
State the answer as a number, implicitly in %.

ALK % of inhibition at a concentration of 500 nM or 1 mM measured on CS(=O)(=O)N1CC[C@H](NC(=O)Nc2ccc3cc2CCc2cccc(c2)Nc2ncc(Cl)c(n2)N3)C1 [Example B172, trifluoroacetate] = 24

ALK % of inhibition at a concentration of 500 nM or 1 mM measured on O=C(Nc1ccc2cc1CCc1cccc(c1)Nc1ncc(Cl)c(n1)N2)N[C@H]1CCN(C(=O)C2CC2)C1 [Example B228, trifluoroacetate] = 10

Would you kindly look at the next entry?
ALK % of inhibition at a concentration of 500 nM or 1 mM measured on NS(=O)(=O)Nc1ccc2cc1CCc1cccc(c1)Nc1ncc(Cl)c(n1)N2 [Example B184, trifluoroacetate] = 82

* * *

Molecular target: TYK2 (Homo sapiens, UniProt P29597)
Sequence (P29597 whole entry): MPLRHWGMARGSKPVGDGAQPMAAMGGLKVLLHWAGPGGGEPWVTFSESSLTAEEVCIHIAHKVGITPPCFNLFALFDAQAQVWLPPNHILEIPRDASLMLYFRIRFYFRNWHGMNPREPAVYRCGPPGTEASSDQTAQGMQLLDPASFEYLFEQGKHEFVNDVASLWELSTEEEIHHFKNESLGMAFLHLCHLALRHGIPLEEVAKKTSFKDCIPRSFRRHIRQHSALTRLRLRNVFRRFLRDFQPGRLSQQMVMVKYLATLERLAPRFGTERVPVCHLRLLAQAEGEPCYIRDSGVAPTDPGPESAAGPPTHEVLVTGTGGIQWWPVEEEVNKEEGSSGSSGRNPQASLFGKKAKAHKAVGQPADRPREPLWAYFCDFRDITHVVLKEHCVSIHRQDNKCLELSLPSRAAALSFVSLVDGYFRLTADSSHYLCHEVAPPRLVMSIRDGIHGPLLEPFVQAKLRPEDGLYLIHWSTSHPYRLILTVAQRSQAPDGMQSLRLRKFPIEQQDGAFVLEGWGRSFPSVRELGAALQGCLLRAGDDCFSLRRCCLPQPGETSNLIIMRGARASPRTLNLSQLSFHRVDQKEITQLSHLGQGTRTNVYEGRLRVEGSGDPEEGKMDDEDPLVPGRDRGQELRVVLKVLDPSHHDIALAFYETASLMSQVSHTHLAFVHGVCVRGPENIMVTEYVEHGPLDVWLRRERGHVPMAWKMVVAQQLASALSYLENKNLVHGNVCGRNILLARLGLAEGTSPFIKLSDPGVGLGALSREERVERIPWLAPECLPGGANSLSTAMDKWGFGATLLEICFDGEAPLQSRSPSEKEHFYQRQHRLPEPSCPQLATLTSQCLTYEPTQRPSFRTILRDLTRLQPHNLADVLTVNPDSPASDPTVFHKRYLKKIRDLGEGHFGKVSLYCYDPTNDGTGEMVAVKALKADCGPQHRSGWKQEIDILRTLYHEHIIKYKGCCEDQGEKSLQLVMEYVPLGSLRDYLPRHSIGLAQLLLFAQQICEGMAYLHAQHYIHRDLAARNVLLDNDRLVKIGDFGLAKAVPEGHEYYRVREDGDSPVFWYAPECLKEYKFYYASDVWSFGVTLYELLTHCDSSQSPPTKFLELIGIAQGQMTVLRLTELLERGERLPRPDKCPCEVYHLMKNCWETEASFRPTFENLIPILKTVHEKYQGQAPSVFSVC
Assay: TYK2 kinase inhibition (Table A1)
Assay type: biochemical
Where a name gives a salt, the structure may show the parent alone.
property.measured: IC50 (µM)
State the answer as a number, implicitly in µM.

Tested on TYK2 (Homo sapiens, UniProt P29597), the item O=C(CC1CCN(S(=O)(=O)c2ccco2)CC1)Nc1ccc2cc1CCc1cccc(c1)Nc1ncc(Cl)c(n1)N2 [Example A211, trifluoroacetate] showed IC50 equal to 0.15

Tested on TYK2 (Homo sapiens, UniProt P29597), the item O=C(Cc1nnn[nH]1)Nc1ccc2cc1CCc1cccc(c1)Nc1ncc(Cl)c(n1)N2 [Example C31, trifluoroacetate] showed IC50 equal to 0.481

Tested on TYK2 (Homo sapiens, UniProt P29597), the item O=C(CC1CCN(C(=O)NCc2ccccc2)CC1)Nc1ccc2cc1CCc1cncc(c1)Nc1ncc(Cl)c(n1)N2 [Example A155, bis(trifluoroacetate)] showed IC50 equal to 0.0038

Tested on TYK2 (Homo sapiens, UniProt P29597), the item O=C(Nc1ccc2cc1CCc1cccc(c1)Nc1ncc(Cl)c(n1)N2)C1CCN(C(=O)c2ccc3c(c2)OCO3)CC1 [Example A31, trifluoroacetate] showed IC50 equal to 0.115

Tested on TYK2 (Homo sapiens, UniProt P29597), the item O=C(CC1CCN(C(=O)Nc2cccnc2)CC1)Nc1ccc2cc1CCc1cncc(c1)Nc1ncc(Cl)c(n1)N2 [Example A144, bis(trifluoroacetate)] showed IC50 equal to 0.011

Would you kindly look at the next entry?
Tested on TYK2 (Homo sapiens, UniProt P29597), the item O=C(Cc1csc2ccccc12)Nc1ccc2cc1CCc1cccc(c1)Nc1ncc(Cl)c(n1)N2 [Example C35, trifluoroacetate] showed IC50 equal to 0.549

* * *

Biological target: Recombinant Human Anaplastic Lymphoma Kinase (Homo sapiens, UniProt Q9UM73)
Construct: purchased Invitrogen, Carlsbad, Calif
Experiment: ALK HTRF kinase assay
Format: biochemical
Settings: percentage inhibition of the example compound at a concentration of 500 nM or 1 mM (not specified which)
property.measured: ALK % of inhibition at a concentration of 500 nM or 1 mM (%)
State the answer as a number, implicitly in %.

ALK % of inhibition at a concentration of 500 nM or 1 mM measured on Cc1occc1NC(=O)N1CCC(CN(C)Cc2ccc3cc2CCc2cncc(c2)Nc2ncc(Cl)c(n2)N3)CC1 [Example B349, tris(trifluoroacetate)] = 61

ALK % of inhibition at a concentration of 500 nM or 1 mM measured on Cc1cncc(N2CCN(C(=O)Nc3ccc4cc3CCc3cncc(c3)Nc3ncc(Cl)c(n3)N4)CC2)n1 [Example B308, tris(trifluoroacetate)] = 79

ALK % of inhibition at a concentration of 500 nM or 1 mM measured on O=C(Nc1ccc2cc1CCc1cncc(c1)Nc1ncc(Cl)c(n1)N2)N1CCN2CCCC2C1 (stereo not drawn) [Example B315, tris(trifluoroacetate)] = 50

ALK % of inhibition at a concentration of 500 nM or 1 mM measured on Cc1ncoc1C(=O)N1CCC(CN(C)Cc2ccc3cc2CCc2cncc(c2)Nc2ncc(Cl)c(n2)N3)CC1 [Example B347, tris(trifluoroacetate)] = 45

ALK % of inhibition at a concentration of 500 nM or 1 mM measured on Cc1cc(C(=O)N2CCC(C(=O)N(C)Cc3ccc4cc3CCc3cncc(c3)Nc3ncc(Cl)c(n3)N4)CC2)no1 [Example B335, bis(trifluoroacetate)] = 18

Further cases:
ALK % of inhibition at a concentration of 500 nM or 1 mM measured on CN(Cc1ccc2cc1CCc1cncc(c1)Nc1ncc(Cl)c(n1)N2)C(=O)C1CCN(C(=O)Nc2ccccc2)CC1 [Example B337, bis(trifluoroacetate)] = 21

* * *

Target: TYK2 (Homo sapiens)
Experiment: TYK2 kinase inhibition (Table A1)
Assay type: biochemical
Details: Table D1
Counter-ions that a name gives are not always drawn.
Threshold-based label: IC50 under 0.05 µM gives 1, IC50 not under 0.05 µM gives 0.

Please review the entries below; each comes with its answer.
### Prompt hey, is IC50 for N#Cc1ccc(NC(=O)N2CCC(CCOc3ccc4cc3CCc3cncc(c3)Nc3ncc(Cl)c(n3)N4)CC2)cc1 [Example D174, bis(trifluoroacetate)] lower than 0.05 µM or not?
### Response 0

### Prompt hey, is IC50 for Clc1cnc2nc1Nc1cccc(c1)SCCNc1cccc(c1)N2 [Example D80, bis(trifluoroacetate)] lower than 0.05 µM or not?
### Response 1

### Prompt hey, is IC50 for Clc1cnc2nc1Nc1ccc(N3CCNCC3)c(c1)CCc1cccc(c1)N2 [Example D83, bis(trifluoroacetate)] lower than 0.05 µM or not?
### Response 0

### Prompt hey, is IC50 for Clc1cnc2nc1Nc1cccc(c1)SCc1cccc(c1)N2 [Example D1, trifluoroacetate] lower than 0.05 µM or not?
### Response 1

### Prompt hey, is IC50 for CC(=O)N1CCC[C@H](CC(=O)Nc2ccc3cc2CCc2cncc(c2)Nc2ncc(Cl)c(n2)N3)C1 [Example D205, bis(trifluoroacetate)] lower than 0.05 µM or not?
### Response 1

Now consider the entry below.
### Prompt hey, is IC50 for NC(=O)N1CCN(C(=O)COc2ccc3cc2CCc2cncc(c2)Nc2ncc(Cl)c(n2)N3)CC1 [Example D270, bis(trifluoroacetate)] lower than 0.05 µM or not?
### Response 0

* * *

Biological target: human JAK2 (a.a. 828-1132) (Homo sapiens, UniProt O60674)
Construct: JAK2 (a.a. 828-1132); His tag (N); made in house; host or cells: insect cells (baculovirus)
Sequence (O60674 828-1132): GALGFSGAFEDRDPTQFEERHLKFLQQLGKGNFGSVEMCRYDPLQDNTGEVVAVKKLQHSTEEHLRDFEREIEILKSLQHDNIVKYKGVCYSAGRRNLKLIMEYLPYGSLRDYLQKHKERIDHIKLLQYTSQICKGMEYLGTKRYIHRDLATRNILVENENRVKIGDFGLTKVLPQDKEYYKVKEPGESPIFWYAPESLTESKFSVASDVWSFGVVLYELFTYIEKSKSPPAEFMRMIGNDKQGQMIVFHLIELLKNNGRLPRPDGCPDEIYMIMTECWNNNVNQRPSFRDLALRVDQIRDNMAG
Assay: In vitro JAK kinase assay (HTRF, phosphorylation of a biotinylated peptide), JAK2
Format: biochemical
Conditions: Table D1
Reported IC50 values for the following molecules.
State the answer as a number, implicitly in nM.

IC50 measured on O=C(COc1ccc2cc1CCc1cncc(c1)Nc1ncc(Cl)c(n1)N2)N1CCN(c2ccccn2)CC1 [Example D231, tris(trifluoroacetate)] = 217

IC50 measured on O=C(Nc1ccsc1)N1CCC(CCOc2ccc3cc2CCc2cncc(c2)Nc2ncc(Cl)c(n2)N3)CC1 [Example D166, bis(trifluoroacetate)] = 58

IC50 measured on Clc1cnc2nc1Nc1cccc(c1)OCCc1cc(cc(-c3ccc(N4CCNCC4)nc3)c1)N2 [Example D33, tris(trifluoroacetate)] = 0.7

Further cases:
IC50 measured on O=C(C[C@@H]1CCN(C(=O)Nc2ccccc2)C1)Nc1ccc2cc1CCc1cncc(c1)Nc1ncc(Cl)c(n1)N2 [Example D113, bis(trifluoroacetate)] = 161

IC50 measured on O=C(C[C@H]1CCN(C(=O)Nc2ccc(F)cc2)C1)Nc1ccc2cc1CCc1cncc(c1)Nc1ncc(Cl)c(n1)N2 [Example D102, bis(trifluoroacetate)] = 78

IC50 measured on Cc1cc(C(=O)N2CCC(Nc3ccc4cc3CCc3cncc(c3)Nc3ncc(Cl)c(n3)N4)CC2)no1 [Example D160, tris(trifluoroacetate)] = 341

* * *

Target: Recombinant Human Anaplastic Lymphoma Kinase (Homo sapiens, UniProt Q9UM73)
Construct: purchased Invitrogen, Carlsbad, Calif
Assay: ALK HTRF kinase assay
Format: biochemical
Conditions: compound at 500 nM or 1 mM; 90 μM ATP
Counter-ions that a name gives are not always drawn.
Output y for ALK % of inhibition at a concentration of 500 nM or 1 mM not less than 10%; output n otherwise.

Please review the entries below; each comes with its answer.
### Prompt Dear colleague, could you confirm whether O=C(CC1CCN(c2cccc(Cl)n2)CC1)Nc1ccc2cc1CCc1cncc(c1)Nc1ncc(Cl)c(n1)N2 [Example A180, tris(trifluoroacetate)] has ALK % of inhibition at a concentration of 500 nM or 1 mM at or above 10%?
### Response y

### Prompt Dear colleague, could you confirm whether N#Cc1c(N2CCC(CC(=O)Nc3ccc4cc3CCc3cncc(c3)Nc3ncc(Cl)c(n3)N4)CC2)cccc1C(F)(F)F [Example A235, tris(trifluoroacetate)] has ALK % of inhibition at a concentration of 500 nM or 1 mM at or above 10%?
### Response n

### Prompt Dear colleague, could you confirm whether Cc1ccc(NC(=O)N2CCC(CC(=O)Nc3ccc4cc3CCc3cncc(c3)Nc3ncc(Cl)c(n3)N4)CC2)cc1 [Example A151, bis(trifluoroacetate)] has ALK % of inhibition at a concentration of 500 nM or 1 mM at or above 10%?
### Response y

### Prompt Dear colleague, could you confirm whether COc1cccc(NC(=O)N2CCC(C(=O)Nc3ccc4cc3CCc3cccc(c3)Nc3ncc(Cl)c(n3)N4)CC2)c1 [Example A38, trifluoroacetate] has ALK % of inhibition at a concentration of 500 nM or 1 mM at or above 10%?
### Response y

### Prompt Dear colleague, could you confirm whether Clc1cnc2nc1Nc1ccc(OC3CCCC3)c(c1)CCc1cccc(c1)N2 [Example A14, trifluoroacetate] has ALK % of inhibition at a concentration of 500 nM or 1 mM at or above 10%?
### Response n

Now consider the entry below.
### Prompt Dear colleague, could you confirm whether N#Cc1ccc(S(=O)(=O)N2CCC(CC(=O)Nc3ccc4cc3CCc3cccc(c3)Nc3ncc(Cl)c(n3)N4)CC2)cc1 [Example A209, trifluoroacetate] has ALK % of inhibition at a concentration of 500 nM or 1 mM at or above 10%?
### Response y
